tested target: Pin1 (GST-Pin1) (Homo sapiens)
Sequence (Q13526 whole entry): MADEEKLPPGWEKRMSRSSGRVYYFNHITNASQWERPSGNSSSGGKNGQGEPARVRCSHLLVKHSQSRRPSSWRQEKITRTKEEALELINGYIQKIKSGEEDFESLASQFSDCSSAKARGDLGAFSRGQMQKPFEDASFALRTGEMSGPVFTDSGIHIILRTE
experimental details: Fluorescence polarization (FP) assay, binding to Pin1
test parameters: competition with fluorescein-labeled peptide probe; 12 hours pre-incubation at 4° C.; Kenakin Ki equation; read-out: Ki, μM (FP Assay)
Non-standard residues stand in square brackets, D forms with d. Residues, ends and D or L forms follow the SMILES beside them. *: point of attachment. 2Nal = N[C@@H](Cc1ccc2ccccc2c1)C(=O)O; NH(4-Me-benzyl) = Cc1ccc(CN*)cc1; Cit = NC(=O)NCCC[C@H](N)C(=O)O; Pip = O=C(O)[C@@H]1CCCCN1; ClAc = O=C(CCl)*
measured endpoint: Ki (µM)

compound	tested target	bound type	numeric result
Cc1ccc(CNC(=O)[C@H](CCCNC(N)=O)NC(=O)[C@H](Cc2c[nH]c3ccccc23)NC(=O)[C@@H]2CCCCN2C(=O)[C@H](Cc2ccccc2)NC(=O)CCl)cc1 [Compound 11-23] (ClAc-F[Pip]W[Cit]-{NH(4-Me-benzyl)})	Pin1 (GST-Pin1) (Homo sapiens)	=	0.004
COC(=O)CC[C@H](NC(=O)CCl)C(=O)N1CCCC[C@H]1C(=O)N[C@@H](Cc1c[nH]c2ccccc12)C(=O)N[C@@H](Cc1c[nH]c2ccccc12)C(=O)NCc1ccc(C)cc1 [Compound 11-2] (ClAc-E(OMe)[Pip]WW-{NH(4-Me-benzyl)})	Pin1 (GST-Pin1) (Homo sapiens)	>	10
COC(=O)CC[C@H](NC(=O)CCl)C(=O)N1CCCC[C@H]1C(=O)N[C@@H](Cc1c[nH]c2ccccc12)C(=O)N[C@@H](Cc1ccc2ccccc2c1)C(N)=O [Compound 2-24] (ClAc-E(OMe)[Pip]W[2Nal]-NH2)	Pin1 (GST-Pin1) (Homo sapiens)	=	0.525
COC(=O)CC[C@H](NC(=O)CCl)C(=O)N1CCCC[C@H]1C(=O)N[C@@H](Cc1ccc2ccccc2c1)C(=O)N[C@@H](CCCNC(N)=O)C(N)=O [Compound 2-11] (ClAc-E(OMe)[Pip][2Nal][Cit]-NH2)	Pin1 (GST-Pin1) (Homo sapiens)	=	0.06
